src = patent US5705356A

Listed molecules paired with reported Relative Activity
Tested on: Glucose Dehydrogenase (GLD)
protocol description: Relative activity of substrates with glucose dehydrogenase (vs D-glucose)
Format: biochemical
run conditions: rate of reaction relative to D-glucose (100%), NAD coenzyme

molecule | system name | readout unit | Relative Activity
OC[C@H]1O[C@@H](O[C@H]2[C@H](O)[C@@H](O)C(O)O[C@@H]2CO)[C@H](O)[C@@H](O)[C@H]1O (stereo partly drawn) [D-lactose] | Glucose Dehydrogenase (GLD) | % | 1.2
O[C@H]1[C@H](O)[C@@H](O)[C@H](O)[C@@H](O)[C@H]1O [inositol] | Glucose Dehydrogenase (GLD) | % | 0.2
O=C(CO)[C@@H](O)[C@H](O)[C@H](O)CO [D-fructose] | Glucose Dehydrogenase (GLD) | % | 0.8
OC[C@H]1OC(O)[C@H](O)[C@@H](O)[C@H]1O (stereo partly drawn) [D-galactose] | Glucose Dehydrogenase (GLD) | % | 0.1
O=C(CO)[C@@H](O)[C@H](O)[C@@H](O)CO [L-sorbose] | Glucose Dehydrogenase (GLD) | % | 0.3
OC[C@H]1O[C@@H](O)[C@H](O)[C@@H](O)[C@@H]1O [D-Glucose] | Glucose Dehydrogenase (GLD) | % | 100
OC[C@@H](O)[C@@H](O)[C@H](O)[C@@H](O)CO [D-sorbitol] | Glucose Dehydrogenase (GLD) | % | 0.1
OC[C@H]1O[C@H](O[C@H]2[C@H](O)[C@@H](O)[C@H](O)O[C@@H]2CO)[C@H](O)[C@@H](O)[C@@H]1O [maltose] | Glucose Dehydrogenase (GLD) | % | 3.9
OC[C@H]1OC(O)[C@@H](O)[C@@H](O)[C@@H]1O (stereo partly drawn) [D-mannose] | Glucose Dehydrogenase (GLD) | % | 2.4

----------
system name: Leucine Dehydrogenase (L.D) (Bacillus cereus)
Sequence (P0A393 1-366): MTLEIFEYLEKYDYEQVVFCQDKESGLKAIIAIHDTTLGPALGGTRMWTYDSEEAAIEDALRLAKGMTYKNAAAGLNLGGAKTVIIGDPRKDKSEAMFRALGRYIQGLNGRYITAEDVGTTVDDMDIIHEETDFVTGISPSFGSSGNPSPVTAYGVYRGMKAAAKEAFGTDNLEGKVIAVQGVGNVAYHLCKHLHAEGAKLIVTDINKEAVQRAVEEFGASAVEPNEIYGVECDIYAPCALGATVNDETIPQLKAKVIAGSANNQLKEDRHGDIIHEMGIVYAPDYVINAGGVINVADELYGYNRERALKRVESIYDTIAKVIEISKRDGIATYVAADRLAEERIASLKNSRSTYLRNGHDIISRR
protocol description: Relative activity of substrates with leucine dehydrogenase (vs L-leucine)
Format: biochemical
run conditions: relative to L-leucine (100%)
Fulfilled means recorded Relative Activity is 60% or above; Not fulfilled means it is below 60%.

line notation | class
CCCC[C@H](N)C(=O)O | Not fulfilled
CC(C)C[C@H](N)C(=O)O | Fulfilled
CC[C@H](C)[C@H](N)C(=O)O | Not fulfilled
CCC[C@H](N)C(=O)O | Not fulfilled
CSCC[C@H](N)C(=O)O | Not fulfilled
CC(C)[C@H](N)C(=O)O | Fulfilled
N[C@@H](CS)C(=O)O | Not fulfilled
